Recorded pKi by entry
target: UniProt:Q9QYN8
pKi: −log10 of the molar value.

| smiles code | pKi |
| --- | --- |
| CC(=O)c1ccc(OCCCN2CC[C@@H](NS(=O)(=O)c3ccc(C#N)cc3)C2)cc1 | 8.20 |
| N#Cc1ccc(S(=O)(=O)N[C@@H]2CCN(CCCOc3ccc(C(=O)C4CC4)cc3)C2)cc1 | 8.40 |
| CC(C)(C)OC(=O)N[C@H]1CCN(CCOc2ccc(-c3ccc(C#N)cc3)cc2)C1 | 5.79 |
| CC(=O)c1ccc(OCCCN2CC[C@@H](NS(=O)(=O)c3cccc4cnccc34)C2)cc1 | 7.72 |
| CC(C)(C)CC(=O)N[C@@H]1CCN(CCCOc2ccc(-c3ccc(C#N)cc3)cc2)C1 | 7.29 |

====

In what follows, each item is paired with its log10 of Ki for histamine-3 receptor (Rattus norvegicus, UniProt Q9QYN8).
quantity measured: log10 of Ki (log10 of the value in nM)

| compound | log10 of Ki |
| --- | --- |
| CC(C)(C)c1ccc(S(=O)(=O)N[C@@H]2CCN(CCCOc3ccc(-c4ccc(C#N)cc4)cc3)C2)cc1 [Example 21] | 1.34 |
| Cc1c(S(=O)(=O)N[C@@H]2CCN(CCCOc3ccc(-c4ccc(C#N)cc4)cc3)C2)sc2ccc(Cl)cc12 [Example 37] | 2.54 |
| N#Cc1cccc(S(=O)(=O)N[C@@H]2CCN(CCCOc3ccc(C(=O)C4CC4)cc3)C2)c1 [Example 71] | 0.45 |
| CN(C(=O)c1csc(-c2cccnc2)n1)[C@@H]1CCN(CCCOc2ccc(-c3ccc(C#N)cc3)cc2)C1 [Example 123] | 0.75 |
| CN(C)C(=O)N(C)[C@@H]1CCN(CCCOc2ccc(-c3ccc(C#N)cc3)cc2)C1 [Example 115] | 1.32 |
| O=C(c1ccc(OCCCN2CC[C@@H](NS(=O)(=O)c3ccccc3OC(F)(F)F)C2)cc1)C1CC1 [Example 89] | 1.04 |
| O=C(c1ccc(OCCCN2CC[C@@H](NS(=O)(=O)c3cc(C(F)(F)F)cc(C(F)(F)F)c3)C2)cc1)C1CC1 [Example 83] | 1.36 |

====

In what follows, each item is paired with its log10(Ki) for histamine-3 receptor (Rattus norvegicus).
quantity measured: log10(Ki) (log10 of the value in nM)

| compound | log10(Ki) |
| --- | --- |
| CN(C)[C@@H]1CCN(CCCOc2ccc(-c3ccc(C#N)cc3)cc2F)C1 [Example 167] | 0.95 |
| Cc1cc(-c2ccc(C#N)cc2)ccc1OCCCN1CC[C@@H](N(C)C)C1 [Example 168] | 1.87 |
| N#Cc1ccc(-c2ccc(OCCCN3CC[C@@H](NS(=O)(=O)c4ccc(OC(F)(F)F)cc4)C3)cc2)cc1 [Example 50] | 1.78 |
| Cc1c(S(=O)(=O)N[C@@H]2CCN(CCCOc3ccc(C(=O)C4CC4)cc3)C2)sc2ccc(Cl)cc12 [Example 82] | 1.32 |
| CC(=O)c1ccc(OCCCN2CC[C@@H](NS(=O)(=O)c3ccc(F)cc3F)C2)cc1 [Example 74] | 0.75 |
| CC(=O)c1ccc(OCCCN2CC[C@@H](NS(=O)(=O)C(C)C)C2)cc1 [Example 6] | 1.98 |
| O=C(N[C@@H]1CCN(CCCOc2ccc(C(=O)C3CC3)cc2)C1)c1csc(-c2cccnc2)n1 [Example 13] | 1.70 |
| C=CCOC(=O)N[C@@H]1CCN(CCCOc2ccc(-c3ccc(C#N)cc3)cc2)C1 [Example 132] | 1.87 |
| CS(=O)(=O)c1ccc(S(=O)(=O)N[C@@H]2CCN(CCCOc3ccc(-c4ccc(C#N)cc4)cc3)C2)cc1 [Example 146] | 0.48 |
| N#Cc1ccc(-c2ccc(OCCCN3CC[C@@H](N(C(=O)N4CCCC4)C(=O)N4CCCC4)C3)cc2)cc1 [Example 149] | 2.52 |
| N#Cc1ccc(-c2ccc(OCCCN3CC[C@@H](NC(=O)c4ccc(F)cc4)C3)cc2)cc1 [Example 139] | 2.46 |
| N#Cc1ccc(-c2ccc(OCCCN3CC[C@@H](NS(=O)(=O)c4ccc(C#N)cc4)C3)cc2)cc1 [Example 33] | 1.20 |
| CC(=O)c1ccc(OCCCN2CC[C@@H](NS(=O)(=O)c3cccc(F)c3)C2)cc1 [Example 72] | 0.90 |
| COc1ccc(S(=O)(=O)N[C@@H]2CCN(CCCOc3ccc(-c4ccc(C#N)cc4)cc3)C2)cc1OC [Example 42] | 0.94 |
| CC(=O)Nc1ccc(S(=O)(=O)N[C@@H]2CCN(CCCOc3ccc(-c4ccc(C#N)cc4)cc3)C2)cc1 [Example 19] | 0.58 |
| O=C(c1ccc(OCCCN2CC[C@@H](NS(=O)(=O)c3cccc4cccnc34)C2)cc1)C1CC1 [Example 84] | 0.98 |
| N#Cc1ccc(-c2ccc(OCCCN3CC[C@@H](NS(=O)(=O)c4cccc5cccnc45)C3)cc2)cc1 [Example 40] | 1.71 |
| N#Cc1ccc(-c2ccc(OCCCN3CC[C@@H](NS(=O)(=O)c4ccccc4C#N)C3)cc2)cc1 [Example 46] | 2.01 |
| COc1ccc(OC)c(S(=O)(=O)N[C@@H]2CCN(CCCOc3ccc(-c4ccc(C#N)cc4)cc3)C2)c1 [Example 24] | 1.63 |
| Cn1cnc(S(=O)(=O)N[C@@H]2CCN(CCCOc3ccc(-c4ccc(C#N)cc4)cc3)C2)c1 [Example 35] | 1.11 |
| CN(C(=O)c1ccc(F)cc1)[C@@H]1CCN(CCCOc2ccc(-c3ccc(C#N)cc3)cc2)C1 [Example 119] | 0.89 |
| CN(C(=O)NC(C)(C)C)[C@@H]1CCN(CCCOc2ccc(-c3ccc(C#N)cc3)cc2)C1 [Example 117] | 1.65 |
| CC(=O)c1ccc(OCCCN2CC[C@@H](NS(=O)(=O)c3ccc(Oc4ncc(C(F)(F)F)cc4Cl)cc3)C2)cc1 [Example 79] | 0.90 |
| Cc1ccc(S(=O)(=O)N[C@@H]2CCN(CCCOc3ccc(-c4ccc(C#N)cc4)cc3)C2)cc1Cl [Example 43] | 1.57 |
| CN(C)C(=O)N[C@@H]1CCN(CCCOc2ccc(-c3ccc(C#N)cc3)cc2)C1 [Example 135] | 2.12 |
| COC(=O)N[C@@H]1CCN(CCCOc2ccc(-c3ccc(C#N)cc3)cc2)C1 [Example 133] | 1.76 |
| CN(C(=O)N1CCOCC1)[C@@H]1CCN(CCCOc2ccc(-c3ccc(C#N)cc3)cc2)C1 [Example 118] | 0.76 |
| CCCCOc1ccc(S(=O)(=O)N[C@@H]2CCN(CCCOc3ccc(C(=O)C4CC4)cc3)C2)cc1 [Example 85] | 0.72 |
| CN(C(=O)OC(C)(C)C)[C@@H]1CCN(CCCOc2ccc(-c3ccc(C#N)cc3)cc2)C1 [Example 109] | 1.41 |
| CC(=O)c1ccc(OCCCN2CC[C@@H](NS(=O)(=O)c3cccn3-c3ncc(C(F)(F)F)cc3Cl)C2)cc1 [Example 78] | 0.94 |

====

target: histamine-3 receptor (Rattus norvegicus, UniProt Q9QYN8)
Sequence (Q9QYN8 whole entry): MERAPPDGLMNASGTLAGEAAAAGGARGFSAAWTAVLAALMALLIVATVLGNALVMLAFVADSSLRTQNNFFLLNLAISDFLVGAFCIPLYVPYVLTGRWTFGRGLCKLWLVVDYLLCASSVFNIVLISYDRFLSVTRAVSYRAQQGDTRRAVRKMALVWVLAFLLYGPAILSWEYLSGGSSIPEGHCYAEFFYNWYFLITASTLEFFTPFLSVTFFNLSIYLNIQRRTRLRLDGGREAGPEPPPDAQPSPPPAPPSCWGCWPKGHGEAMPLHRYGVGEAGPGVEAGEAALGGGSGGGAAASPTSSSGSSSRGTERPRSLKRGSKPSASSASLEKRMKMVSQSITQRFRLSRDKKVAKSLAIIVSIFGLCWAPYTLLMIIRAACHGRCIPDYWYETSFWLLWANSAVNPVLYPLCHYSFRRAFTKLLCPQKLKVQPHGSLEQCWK
pKi: −log10 of the molar value.
Label Condition met for high-side pKi (at or above 7) and Condition not met for low-side pKi (below it).

| smiles code | system | label |
| --- | --- | --- |
| Cn1cnc(S(=O)(=O)N[C@@H]2CCN(CCCOc3ccc(-c4ccccn4)cc3)C2)c1 | histamine-3 receptor (Rattus norvegicus, UniProt Q9QYN8) | Condition not met |
| O=C(c1ccc(OCCCN2CC[C@@H](NS(=O)(=O)c3ccc(Br)cc3)C2)cc1)C1CC1 | histamine-3 receptor (Rattus norvegicus, UniProt Q9QYN8) | Condition met |
| CN(C(=O)c1cccnc1)[C@@H]1CCN(CCCOc2ccc(-c3ccc(C#N)cc3)cc2)C1 | histamine-3 receptor (Rattus norvegicus, UniProt Q9QYN8) | Condition met |
| O=C(c1ccc(OCCCN2CC[C@@H](NS(=O)(=O)c3cccc(Cl)c3)C2)cc1)C1CC1 | histamine-3 receptor (Rattus norvegicus, UniProt Q9QYN8) | Condition met |
| N#Cc1ccc(-c2ccc(OCCCN3CC[C@@H](NS(=O)(=O)c4ccc(C(F)(F)F)cc4)C3)cc2)cc1 | histamine-3 receptor (Rattus norvegicus, UniProt Q9QYN8) | Condition met |

====

biological target: histamine-3 receptor (Rattus norvegicus); construct: from tissue; host or cells: male Sprague-Dawley rat brain cortex membranes; experiment: Histamine-3 receptor binding, (3H)-N-α-methylhistamine displacement in rat cortical membranes; conditions: male Sprague-Dawley rat brain cortical membranes; (3H)-N-α-methylhistamine ~0.6 nM; 30 minutes at 25° C.; Cheng-Prusoff
pKi: −log10 of the molar value.
Recorded pKi by entry

| smiles code | pKi |
| --- | --- |
| N#Cc1ccc(-c2ccc(OCCCN3CC[C@@H](NS(=O)(=O)c4ccc(Br)cc4)C3)cc2)cc1 | 7.17 |
| CCC(C)(C)OC(=O)N(C)[C@@H]1CCN(CCCOc2ccc(-c3ccc(C#N)cc3)cc2)C1 | 7.19 |
| CC(C)S(=O)(=O)N[C@@H]1CCN(CCCOc2ccc(C(=O)C3CC3)cc2)C1 | 7.15 |
| CCC(C)(C)OC(=O)N[C@@H]1CCN(CCCOc2ccc(-c3ccc(C#N)cc3)cc2)C1 | 6.77 |
| CC(=O)c1ccc(OCCCN2CC[C@@H](NS(=O)(=O)c3ccc(Cl)c(Cl)c3)C2)cc1 | 8.28 |
| COc1ccc(S(=O)(=O)N[C@@H]2CCN(CCCOc3ccc(C(=O)C4CC4)cc3)C2)cc1 | 8.52 |
| CCc1ccc(S(=O)(=O)N[C@@H]2CCN(CCCOc3ccc(C(=O)C4CC4)cc3)C2)cc1 | 8.34 |
| CN(C(=O)CC(C)(C)C)[C@@H]1CCN(CCCOc2ccc(-c3ccc(C#N)cc3)cc2)C1 | 7.89 |
| COc1ccc(S(=O)(=O)N[C@@H]2CCN(CCCOc3ccc(C(=O)C4CC4)cc3)C2)cc1OC | 8.74 |
| N#Cc1ccc(-c2ccc(OCCCN3CC[C@@H](NS(=O)(=O)c4ccccc4)C3)cc2)cc1 | 8.14 |
| N#Cc1ccc(-c2ccc(OCCCN3CC[C@@H](NC(=O)c4cccnc4)C3)cc2)cc1 | 6.47 |
